Could you please report measured GLUCOSE for the items listed next?
Species: Rattus norvegicus
Protocol Text: DrugMatrix - Regimen: Daily Repeat
Type: toxicity, organism-based, Sprague-Dawley
Set-up: regimen Daily Repeat, gender Male, age 6-8 weeks
Condition Parameters: in vivo, po, 0 mg/kg, 120 h, tissue Plasma, route oral GAVAGE, dose level Control, time 5 day, […]
Return type: number; implicit unit mg/dL.

For CC#C[C@]1(O)CC[C@H]2[C@@H]3CCC4=CC(=O)CCC4=C3[C@@H](c3ccc(N(C)C)cc3)C[C@@]21C [MIFEPRISTONE] , write its GLUCOSE.
170.17

For O=C(Nc1ccc(Cl)c(Cl)c1)c1cc(Cl)cc(Cl)c1O [3,3',4',5-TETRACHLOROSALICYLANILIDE] , write its GLUCOSE.
184.17

For CC(C)(c1ccc(O)cc1)c1ccc(O)cc1 [BISPHENOL A] , write its GLUCOSE.
142

For CCC(C)(C)C(=O)O[C@H]1C[C@@H](C)C=C2C=C[C@H](C)[C@H](CC[C@@H]3C[C@@H](O)CC(=O)O3)[C@H]21 [SIMVASTATIN] , write its GLUCOSE.
170.17
